- experimental_target: Gamma-aminobutyric acid receptor subunit alpha-3 (Rattus norvegicus)
- assay_details: Inverse agonist activity at rat GABA alpha-3-beta-3-gamma-2 receptor expressed in HEK293 cells by electrophysiology assay relative to GABA
- Format: functional, cell-based
For each of the molecules below, state its Efficacy.
# output: bare number, implied unit %

State the recorded Efficacy for this entry: `FC(F)c1ncn2c1Cn1ncnc1-c1cc(Cl)ccc1-2`
21

State the recorded Efficacy for this entry: `Clc1ccc2c(c1)-c1ncnn1Cc1c(Cl)ncn1-2`
-11

State the recorded Efficacy for this entry: `FC(F)c1ncn2c1Cn1ncnc1-c1cc(Br)ccc1-2`
2

State the recorded Efficacy for this entry: `Clc1ncn2c1Cn1ncnc1-c1cc(Br)ccc1-2`
-14

State the recorded Efficacy for this entry: `Cc1ncn2c1Cn1ncnc1-c1cc(Cl)ccc1-2`
4
